B1: ESRRG (parent)
chain: YSCPATNECEITKRRRKSCQACRF

# Variants of: B1
# Assay Procedure: protein stability index of a GFP-peptide fusion (GPS, HEK-293T) (PSI 1-6); higher = more stable;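 further: lentivirally expressed fusions sorted by FACS into six bins by GFP to DsRed ratio, PSI derived from sequencing read proportions per bin multiplied by bin number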
# Test Conditions: c terminus: a fixed tail appended
Quantity Kind: protein stability index

Input: Could you tell me which protein stability index is on file for C9L ?
Output: 3.08

Input: Could you tell me which protein stability index is on file for A5V ?
Output: 3.03

Input: Could you tell me which protein stability index is on file for C22W ?
Output: 2.94

Input: Could you tell me which protein stability index is on file for S18V ?
Output: 3.08

Input: Could you tell me which protein stability index is on file for P4V ?
Output: 3.09
